Cited source: patent US11084829B2

pIC50: −log10 of the molar value.
As a worked illustration, we turn to pIC50 data collected for USP7 (Homo sapiens).

-- ask Hello, I am looking for reported pIC50 with USP7 (Homo sapiens) for `Cc1cc(Cl)cc(-c2ccnc3cc(Cn4c(=O)ccn(CC(F)(F)F)c4=O)sc23)c1CN1CCNCC1=O` . Could you help?
-- reply < 7.00

-- ask Requested read-out pIC50, target or system USP7 (Homo sapiens), entry Cc1cc(Cl)cc(-c2ncnc3ccsc23)c1CC1CNCCO1 (centres unmarked)
-- reply < 7.00

-- ask Form field: pIC50 recorded for `Cc1cc(Cl)cc(-c2ncnc3cc(CN4C(=O)CN(CCCC(=O)O)C4=O)sc23)c1C[C@@H]1CNCCO1` with USP7 (Homo sapiens) (enter value)
-- reply 7.00 to 8.00

-- ask Query the reported pIC50 for USP7 (Homo sapiens); item: Cc1cc(Cl)cc(-c2ncnc3cc(Cn4c(=O)ccn(CC(F)(F)F)c4=O)sc23)c1CC1CNCCO1 (centres unmarked)
-- reply > 8.00

-- ask // lookup pIC50 | system=USP7 (Homo sapiens) | key= Cc1cc(Cl)cc(-c2ncnc3cc(CN4CCCC4=O)sc23)c1CC1CNCCO1 (centres unmarked)
-- reply < 7.00

-- ask USP7 (Homo sapiens) / pIC50 / Cc1cc(Cl)cc(-c2ccnc3cc(CN4C(=O)CCC4=O)sc23)c1CN1CCNC(C)C1 (centres unmarked) : value?
-- reply > 8.00

-- ask Lab request: please report pIC50 under test system USP7 (Homo sapiens) for `Cc1cc(Cl)cc(-c2ccnc3cc(CN4C(=O)CCC4=O)sc23)c1CN1C[C@@H](C)N[C@@H](C)C1`
-- reply 7.00 to 8.00

-- ask # returns recorded pIC50 (system: USP7 (Homo sapiens)) for `Cc1cc(Cl)cc(-c2ccnc3c(F)c(CN4C(=O)CNC4=O)sc23)c1C[C@@H]1CNCCO1`
Sequence (Q93009 whole entry): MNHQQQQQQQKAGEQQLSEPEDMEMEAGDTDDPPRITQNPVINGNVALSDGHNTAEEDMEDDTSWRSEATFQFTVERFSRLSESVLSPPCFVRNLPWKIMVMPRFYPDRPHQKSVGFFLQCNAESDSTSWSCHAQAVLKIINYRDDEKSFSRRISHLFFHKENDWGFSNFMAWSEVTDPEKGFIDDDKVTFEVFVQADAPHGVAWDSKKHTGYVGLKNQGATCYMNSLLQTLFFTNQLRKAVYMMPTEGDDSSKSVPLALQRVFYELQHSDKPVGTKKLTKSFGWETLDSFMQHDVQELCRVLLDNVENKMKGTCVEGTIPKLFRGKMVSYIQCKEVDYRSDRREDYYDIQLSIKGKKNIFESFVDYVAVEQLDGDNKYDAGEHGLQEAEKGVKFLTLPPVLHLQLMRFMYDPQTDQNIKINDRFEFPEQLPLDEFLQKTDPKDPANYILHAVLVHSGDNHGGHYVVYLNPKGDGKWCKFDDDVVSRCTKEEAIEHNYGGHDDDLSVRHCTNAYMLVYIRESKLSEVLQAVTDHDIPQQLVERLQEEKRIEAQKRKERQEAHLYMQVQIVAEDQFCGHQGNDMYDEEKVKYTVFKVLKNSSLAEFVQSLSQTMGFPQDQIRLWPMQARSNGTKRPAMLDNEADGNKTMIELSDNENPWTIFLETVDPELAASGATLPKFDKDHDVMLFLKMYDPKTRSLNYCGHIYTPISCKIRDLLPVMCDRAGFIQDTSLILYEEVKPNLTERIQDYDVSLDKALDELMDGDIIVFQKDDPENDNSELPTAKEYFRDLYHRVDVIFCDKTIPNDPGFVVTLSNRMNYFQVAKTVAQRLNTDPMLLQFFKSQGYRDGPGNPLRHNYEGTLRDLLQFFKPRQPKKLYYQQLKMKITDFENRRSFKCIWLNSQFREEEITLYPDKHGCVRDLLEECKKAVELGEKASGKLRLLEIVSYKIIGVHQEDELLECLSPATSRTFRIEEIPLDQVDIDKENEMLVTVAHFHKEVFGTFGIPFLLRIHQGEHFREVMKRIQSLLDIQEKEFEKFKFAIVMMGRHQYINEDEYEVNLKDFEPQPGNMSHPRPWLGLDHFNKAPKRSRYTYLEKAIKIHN
-- reply 7.00 to 8.00
